Each entry below carries its reported (F) hLRRC33, Cell-associated proTGFβ1 KD.
- Target Of Assay: T1, hLRRC33-proTGFβ1 (Homo sapiens, UniProt P01137)
- T1 construct: made in house
- T1 sequence (P01137 30-390): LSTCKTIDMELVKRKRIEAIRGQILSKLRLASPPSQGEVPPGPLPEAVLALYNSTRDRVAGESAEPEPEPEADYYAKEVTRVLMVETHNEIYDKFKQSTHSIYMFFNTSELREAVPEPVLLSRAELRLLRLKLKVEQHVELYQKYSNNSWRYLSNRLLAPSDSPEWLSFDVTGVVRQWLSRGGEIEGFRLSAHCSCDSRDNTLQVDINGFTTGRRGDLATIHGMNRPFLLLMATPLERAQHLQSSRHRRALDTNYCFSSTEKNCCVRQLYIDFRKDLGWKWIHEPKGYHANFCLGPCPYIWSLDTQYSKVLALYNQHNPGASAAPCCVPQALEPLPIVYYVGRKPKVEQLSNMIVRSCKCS
- T1 sequence (Q86YC3 19-650 partner limits assumed): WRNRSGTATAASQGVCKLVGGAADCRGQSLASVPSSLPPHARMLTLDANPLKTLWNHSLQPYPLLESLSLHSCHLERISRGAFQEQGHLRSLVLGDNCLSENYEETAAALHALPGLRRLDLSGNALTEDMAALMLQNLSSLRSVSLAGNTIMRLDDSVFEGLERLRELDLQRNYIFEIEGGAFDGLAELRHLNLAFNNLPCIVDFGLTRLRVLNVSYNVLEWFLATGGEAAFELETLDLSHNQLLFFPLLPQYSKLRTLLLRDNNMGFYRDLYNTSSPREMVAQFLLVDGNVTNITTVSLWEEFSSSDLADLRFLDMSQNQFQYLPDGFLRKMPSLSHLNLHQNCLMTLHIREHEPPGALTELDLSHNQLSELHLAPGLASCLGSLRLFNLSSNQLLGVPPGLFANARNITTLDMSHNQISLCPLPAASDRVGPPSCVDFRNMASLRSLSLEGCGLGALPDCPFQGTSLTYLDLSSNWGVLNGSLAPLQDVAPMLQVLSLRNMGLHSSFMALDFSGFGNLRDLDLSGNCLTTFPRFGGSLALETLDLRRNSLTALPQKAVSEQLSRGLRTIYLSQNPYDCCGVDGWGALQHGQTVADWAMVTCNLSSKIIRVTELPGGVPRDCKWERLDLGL
- Assay Comment: MSD-SET solution equilibrium titration binding
- Measurement Conditions: MSD-SET at equilibrium, hIgG4, human complex; in M
In your answer, state the number alone without any accompanying words.

Ab22: monoclonal antibody; VH SEQ ID NO: 130, VL SEQ ID NO: 15 (antibody, V domains shown) VH: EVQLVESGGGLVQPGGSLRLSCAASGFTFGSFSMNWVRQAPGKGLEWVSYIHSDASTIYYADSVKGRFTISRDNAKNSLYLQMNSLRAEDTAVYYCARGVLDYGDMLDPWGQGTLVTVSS VL: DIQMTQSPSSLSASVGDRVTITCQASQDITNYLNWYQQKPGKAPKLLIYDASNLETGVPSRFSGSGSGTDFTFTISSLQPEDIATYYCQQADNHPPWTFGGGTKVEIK
2.00E−10

Moving on to another molecule below.
Data request: Recorded (F) hLRRC33, Cell-associated proTGFβ1 KD of Ab19: monoclonal antibody; VH SEQ ID NO: 250, VL SEQ ID NO: 241 (antibody, V domains shown) VH: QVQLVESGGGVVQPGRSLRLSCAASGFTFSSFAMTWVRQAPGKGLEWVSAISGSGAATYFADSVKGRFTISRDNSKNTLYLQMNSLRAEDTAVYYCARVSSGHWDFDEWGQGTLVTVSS VL: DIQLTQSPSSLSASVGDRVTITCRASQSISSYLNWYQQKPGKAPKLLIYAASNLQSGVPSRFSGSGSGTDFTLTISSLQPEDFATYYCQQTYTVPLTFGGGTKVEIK , please.
Data returned: 5.70E−09
